- Test system: H460 lung carcinoma
- PROCEDURE SUMMARY: Cytotoxicity assay (MTT), 6 days
- Assay type: cell-based
- CONDITION SUMMARY: Homo sapiens, NCI-H460, 144 h, 6 days of treatment, read-out: Toxicity 6d (IC 50, μM) H460
READOUT: IC50 (µM)
Respond with the bare value in µM.

CCCc1ccccc1OCCCCCOc1coc(CO)cc1=O [EH18900] ... 40

Attention now turns to another entry.
input: Let me know recorded IC50 for C/C=C/c1oc(CO)cc(=O)c1OCCCCCOc1ccc(Cl)c(Cl)c1 [EH30101] , thanks.
output: 35

----------
- Tested on: cell architecture
- PROCEDURE SUMMARY: Cell architecture modification, phase contrast
- Assay type: cell-based
- Set-up: key: −: no effect of the compound was observed; +: an effect of the compound was observed
READOUT: Cell architecture modification phase contrast

Record excerpt, results attached:
O=c1cc(COCc2ccccc2)occ1OCCCCCOc1ccc(Cl)c(Cl)c1 [EH7701] ... −
C/C=C/c1oc(CO)cc(=O)c1OCCCCCOc1ccccc1CCC [EH9301] ... −
CCCc1cc(Cl)c(Cl)cc1OCCCCCOc1coc(CO)cc1=O [EH30701] ... −
O=c1cc(CO)occ1OCCCCCOc1ccc(Cl)c(Cl)c1 [EH5500] ... +

Attention now turns to another entry.
input: Let me know recorded Cell architecture modification phase contrast for CCCc1c(OCCCCCCCOc2coc(CO)cc2=O)ccc(Cl)c1Cl [EH17701] , thanks.
output: −
